Data provenance: the supplement of paper PMC11865577

Test system: TO-3-N3-2 (biotin conjugate)
TEST NAME: pull-down binding Z-score (relative to library population); higher = stronger binding
SETTINGS: RNA library: Library-2
Respond with Met for pull-down binding Z-score values of 0.07 and above, Not met for values below.

Below, 4 sequences whose answers are already recorded.
GCAGCAAUAUGC [IAV_invivo_PA_3_Motif_2+IAV_invivo_PA_3_Motif_2]; Not met
GGUACAUUUACUUGUGCU [SHAPE_invivo_SARS-CoV-2_Motif_118]; Not met
AUUGUUCAACUUAGUGAAAUUAGUAUGGACAAU; Met
GGAUCCCAGAUCAAACCAGGCCC [hsa-mir-331]; Not met

Problem: Please tell me: is the sequence GUGAGCUGGAAAUGGGGUGCUAC [hsa-mir-598] at or over 0.07 in terms of pull-down binding Z-score?
Solution: Met
